test: qHTS assay to identify small molecule antagonists of the constitutive androstane receptor (CAR) signaling pathway - cell viability counter screen (AID 1224837); conditions: HepG2-CYP2B6-hCAR viability, CellTiter-Fluor, 23 h, co-treated with 50 nM CITCO; series mostly up to 92.4 µM; also: nearly all actives have a fitted effect of over 45% in size
Records with an inconclusive call do not appear. Activity calls are given as the source filed them. Calls follow the shape of the dose curve; as a rule, active = well fitted cell-killing curve with a large enough effect in the repeat runs; inconclusive = weak or mixed curves, or effect the other way; inactive = flat fitted curve, though single readings scatter.
Labels: active, inactive

>  <compound>
C=CC(C)(CCC=C(C)C)OC=O (configuration not stated)

>  <group>
inactive

$$$$
>  <compound>
CCOC(=O)c1ccc(C2CCC(NC[C@H](O)COc3ccc(O)c(NS(C)(=O)=O)c3)CC2)cc1 (some centres not stated)

>  <group>
inactive

$$$$
>  <compound>
C1CCC(SSC2CCCCC2)CC1

>  <group>
inactive

$$$$
>  <compound>
CCO[C@@H]1O[C@H](C(COCc2ccccc2)OCc2ccccc2)[C@H](OCc2ccccc2)[C@H]1O (some centres not stated)

>  <group>
inactive

$$$$
>  <compound>
O=[N+]([O-])c1cccc(C(F)(F)F)c1

>  <group>
inactive

$$$$
>  <compound>
Cc1cccc(C)c1NC(=O)c1ccc(N)cc1

>  <group>
inactive

$$$$
>  <compound>
ClCCl

>  <group>
inactive

$$$$
>  <compound>
O=c1[nH]c(=O)n([C@H]2C[C@H](O)[C@@H](CO)O2)cc1F

>  <group>
inactive

$$$$
>  <compound>
CCCC(=O)OC(C)(C)Cc1ccccc1

>  <group>
inactive

$$$$
>  <compound>
NC(=O)c1cccc([N+](=O)[O-])c1

>  <group>
inactive

$$$$
>  <compound>
Oc1cc(Cl)cc(Cl)c1Cl

>  <group>
inactive

$$$$
>  <compound>
COc1cc(S(=O)(=O)O)c(C)cc1N=Nc1c(O)ccc2cc(S(=O)(=O)O)ccc12

>  <group>
active

$$$$
